- system.tested: Adrenergic receptor alpha-2 (Rattus norvegicus, UniProt P22086+P19328+P22909)
- experiment.notes: Alpha-2-adrenolytic activity was assessed from the ability to inhibit [3H]yohimbine binding to rat cerebral cortex preparation
- Type: tissue-based
test.readout: IC50 (nM)

compound=CO/C(O)=C1\C(C)=NC(C)=C(C(=O)OCCN(C)C[C@@H]2COc3ccccc3O2)[C@H]1c1cccc([N+](=O)[O-])c1.Cl unit_symbol=nM measured_result=19000
compound="COC(=O)C1=C(C)NC(C)=C(C(=O)OCCN(C)Cc2ccccc2)C1c1cccc([N+](=O)[O-])c1 (stereo not given)" unit_symbol=nM measured_result=1400
compound="CC1=NC(C)=C(C(=O)OC(C)CN(C)CC2COc3ccccc3O2)C(c2cccc([N+](=O)[O-])c2)/C1=C(\\O)OC(C)C.Cl (stereo not given)" unit_symbol=nM measured_result=2000
compound="CC1=NC(C)=C(C(=O)OCCN(C)CC2COc3ccccc3O2)C(c2cccc([N+](=O)[O-])c2)/C1=C(\\O)OC(C)C.Cl (stereo not given)" unit_symbol=nM measured_result=830
compound="COC(=O)C1=C(C)NC(C)=C(C(=O)OCCN(C)C[C@H]2COc3ccccc3O2)[C@@H]1c1cccc([N+](=O)[O-])c1.Cl (racemic)" unit_symbol=nM measured_result=210

---

# IC50 listing for each entry below
- system.tested: Adrenergic receptor alpha-1 (Rattus norvegicus, UniProt P15823+P23944+P43140)
- Sequence (P15823 whole entry): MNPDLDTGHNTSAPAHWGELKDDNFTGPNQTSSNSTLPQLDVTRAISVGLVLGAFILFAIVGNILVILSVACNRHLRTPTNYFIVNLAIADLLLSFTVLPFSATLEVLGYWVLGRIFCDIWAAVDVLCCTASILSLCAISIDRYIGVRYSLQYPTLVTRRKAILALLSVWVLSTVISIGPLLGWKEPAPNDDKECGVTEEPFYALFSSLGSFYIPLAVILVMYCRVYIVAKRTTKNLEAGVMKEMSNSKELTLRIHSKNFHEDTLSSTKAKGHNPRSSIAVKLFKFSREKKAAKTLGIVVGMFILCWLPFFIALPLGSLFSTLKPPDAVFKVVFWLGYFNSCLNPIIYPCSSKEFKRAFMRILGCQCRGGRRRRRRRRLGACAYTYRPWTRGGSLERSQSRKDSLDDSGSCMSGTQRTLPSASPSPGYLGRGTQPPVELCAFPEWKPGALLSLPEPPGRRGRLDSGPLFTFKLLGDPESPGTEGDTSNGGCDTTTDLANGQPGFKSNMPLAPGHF
- Sequence (P23944 whole entry): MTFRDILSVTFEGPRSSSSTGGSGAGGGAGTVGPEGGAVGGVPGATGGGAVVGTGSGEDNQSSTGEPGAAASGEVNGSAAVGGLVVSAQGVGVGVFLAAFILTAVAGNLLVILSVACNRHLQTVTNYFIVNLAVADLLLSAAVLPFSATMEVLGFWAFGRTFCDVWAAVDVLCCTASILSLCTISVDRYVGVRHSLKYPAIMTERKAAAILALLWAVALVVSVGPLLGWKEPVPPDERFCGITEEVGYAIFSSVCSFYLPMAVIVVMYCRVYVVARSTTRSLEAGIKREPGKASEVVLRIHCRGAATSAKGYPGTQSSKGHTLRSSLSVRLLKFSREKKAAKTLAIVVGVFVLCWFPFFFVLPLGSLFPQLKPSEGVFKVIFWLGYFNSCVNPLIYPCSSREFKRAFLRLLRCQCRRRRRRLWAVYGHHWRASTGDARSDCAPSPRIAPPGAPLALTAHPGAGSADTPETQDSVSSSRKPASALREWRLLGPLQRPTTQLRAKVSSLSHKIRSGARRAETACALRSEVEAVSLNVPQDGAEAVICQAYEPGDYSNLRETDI
- Sequence (P43140 whole entry): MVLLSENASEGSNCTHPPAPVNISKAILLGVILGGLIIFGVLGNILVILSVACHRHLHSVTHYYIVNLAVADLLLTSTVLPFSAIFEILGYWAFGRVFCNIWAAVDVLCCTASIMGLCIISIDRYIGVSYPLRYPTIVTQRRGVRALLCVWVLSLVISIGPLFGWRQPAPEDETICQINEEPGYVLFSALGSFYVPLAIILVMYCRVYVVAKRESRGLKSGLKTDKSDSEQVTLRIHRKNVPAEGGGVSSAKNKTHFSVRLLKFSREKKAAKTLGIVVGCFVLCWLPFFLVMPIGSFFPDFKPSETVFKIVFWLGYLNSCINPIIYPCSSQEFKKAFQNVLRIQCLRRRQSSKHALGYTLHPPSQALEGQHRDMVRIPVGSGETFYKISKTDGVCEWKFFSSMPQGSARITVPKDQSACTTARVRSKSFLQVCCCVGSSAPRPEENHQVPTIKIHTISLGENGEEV
- experiment.notes: Alpha-1-adrenolytic activity was assessed in vitro from the ability to inhibit norepinephrine-induced contraction of rat aorta preparation
test.readout: IC50

molecule="COC(=O)C1=C(C)NC(C)=C(C(=O)OCCN(C)C[C@H]2COc3ccccc3O2)[C@@H]1c1cccc([N+](=O)[O-])c1.Cl (stereo in doubt; 6b)" measured_result="> 0.00003 M"
molecule="CO/C(O)=C1\\C(C)=NC(C)=C(C(=O)OC(C)CN(C)CC2COc3ccccc3O2)C1c1cccc([N+](=O)[O-])c1.Cl (centres undefined)" measured_result=">> 0.0001 M"
molecule=CO/C(O)=C1\C(C)=NC(C)=C(C(=O)OCCN(C)C[C@@H]2COc3ccccc3O2)[C@H]1c1cccc([N+](=O)[O-])c1.Cl measured_result=">> 0.00001 M"
molecule="CO/C(O)=C1\\C(C)=NC(C)=C(C(=O)OCCN(C)CC2COc3ccccc3O2)C1c1ccccc1[N+](=O)[O-] (centres undefined)" measured_result="> 0.00001 M"
molecule="CO/C(O)=C1\\C(C)=NC(C)=C(C(=O)OCCN(C)C(c2ccccc2)C2CCCCC2)C1c1cccc([N+](=O)[O-])c1.Cl (centres undefined)" measured_result="> 0.0001 M"
molecule="CO/C(O)=C1\\C(C)=NC(C)=C(C(=O)OCCN(C)CC2COc3ccccc3O2)C1c1cccc([N+](=O)[O-])c1.Cl (centres undefined)" measured_result="0.00004 M"
molecule="CC1=NC(C)=C(C(=O)OCCN(C)CC2COc3ccccc3O2)C(c2cccc([N+](=O)[O-])c2)/C1=C(\\O)OC(C)C.Cl (centres undefined)" measured_result=">> 0.00003 M"
molecule="CC1=NC(C)=C(C(=O)OC(C)CN(C)CC2COc3ccccc3O2)C(c2cccc([N+](=O)[O-])c2)/C1=C(\\O)OC(C)C.Cl (centres undefined)" measured_result=">> 0.00003 M"
molecule="COC(=O)C1=C(C)NC(C)=C(C(=O)OCCN(C)C[C@H]2COc3ccccc3O2)[C@@H]1c1cccc([N+](=O)[O-])c1.Cl (stereo in doubt; 6a)" measured_result="0.00001 M"

---

We begin with a simple list: items and their reported IC50.
- system.tested: Adrenergic receptor alpha-1 (Rattus norvegicus, UniProt P15823+P23944+P43140)
- experiment.notes: Alpha-1-adrenolytic activity was assessed in vitro from the ability to inhibit norepinephrine-induced contraction of rat aorta preparation
test.readout: IC50 (M)

compound="COC(=O)C1=C(C)NC(C)=C(C(=O)OCCN(C)Cc2ccccc2)C1c1cccc([N+](=O)[O-])c1 (centres undefined)" unit_symbol=M qualifier_symbol=> measured_result=0.00001
compound="CO/C(O)=C1\\C(C)=NC(C)=C(C(=O)OCCN(C)C(C)COc2ccccc2)C1c1cccc([N+](=O)[O-])c1.Cl (centres undefined)" unit_symbol=M qualifier_symbol== measured_result=0.00007
compound="CO/C(O)=C1\\C(C)=NC(C)=C(C(=O)OCCN2CCC(n3c(O)nc4ccccc43)CC2)C1c1cccc([N+](=O)[O-])c1 (centres undefined)" unit_symbol=M qualifier_symbol== measured_result=0.00001
compound="COC(=O)C1=C(C)NC(C)=C(C(=O)OCCN(C)C[C@H]2COc3ccccc3O2)[C@@H]1c1cccc([N+](=O)[O-])c1.Cl (racemic)" unit_symbol=M qualifier_symbol== measured_result=0.00003

---

- system.tested: Adrenergic receptor alpha-2 (Rattus norvegicus, UniProt P22086+P19328+P22909)
- experiment.notes: Ability to inhibit [3H]yohimbine binding to alpha-2 adrenergic receptor of rat cerebral cortex preparation
- Format: tissue-based
test.readout: log10(IC50) (log10 of the value in nM)

compound="CO/C(O)=C1\\C(C)=NC(C)=C(C(=O)OCCN(C)C(c2ccccc2)C2CCCCC2)C1c1cccc([N+](=O)[O-])c1.Cl (stereo not drawn)" system_tested="Adrenergic receptor alpha-2 (Rattus norvegicus, UniProt P22086+P19328+P22909)" measured_result=4.20
compound="CO/C(O)=C1\\C(C)=NC(C)=C(C(=O)OCCN2CCC(n3c(O)nc4ccccc43)CC2)C1c1cccc([N+](=O)[O-])c1 (stereo not drawn)" system_tested="Adrenergic receptor alpha-2 (Rattus norvegicus, UniProt P22086+P19328+P22909)" measured_result=3.20
compound="CO/C(O)=C1\\C(C)=NC(C)=C(C(=O)OCCN(C)C(C)COc2ccccc2)C1c1cccc([N+](=O)[O-])c1.Cl (stereo not drawn)" system_tested="Adrenergic receptor alpha-2 (Rattus norvegicus, UniProt P22086+P19328+P22909)" measured_result=2.68
compound="CO/C(O)=C1\\C(C)=NC(C)=C(C(=O)OCCN(C)CC2COc3ccccc3O2)C1c1cccc([N+](=O)[O-])c1.Cl (stereo not drawn)" system_tested="Adrenergic receptor alpha-2 (Rattus norvegicus, UniProt P22086+P19328+P22909)" measured_result=2.68
compound="CO/C(O)=C1\\C(C)=NC(C)=C(C(=O)OCCN(C)CC2COc3ccccc3O2)C1c1ccccc1[N+](=O)[O-] (stereo not drawn)" system_tested="Adrenergic receptor alpha-2 (Rattus norvegicus, UniProt P22086+P19328+P22909)" measured_result=2.43
compound="COC(=O)C1=C(C)NC(C)=C(C(=O)OCCN(C)C[C@H]2COc3ccccc3O2)[C@@H]1c1cccc([N+](=O)[O-])c1.Cl (stereo in doubt; 6a)" system_tested="Adrenergic receptor alpha-2 (Rattus norvegicus, UniProt P22086+P19328+P22909)" measured_result=3.60
compound="COC(=O)C1=C(C)NC(C)=C(C(=O)OCCN(C)C[C@H]2COc3ccccc3O2)[C@@H]1c1cccc([N+](=O)[O-])c1.Cl (stereo in doubt; 6b)" system_tested="Adrenergic receptor alpha-2 (Rattus norvegicus, UniProt P22086+P19328+P22909)" measured_result=2.15
compound="CO/C(O)=C1\\C(C)=NC(C)=C(C(=O)OC(C)CN(C)CC2COc3ccccc3O2)C1c1cccc([N+](=O)[O-])c1.Cl (stereo not drawn)" system_tested="Adrenergic receptor alpha-2 (Rattus norvegicus, UniProt P22086+P19328+P22909)" measured_result=2.67
